- TEST DETAILS: chemical genetic growth profiling, strain panel (AID 1159580);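 further: tested at 20 µM; growth read once vehicle control cultures reached saturation at 30 °C; 1 = growth at the plate median or of vehicle wells; lower values mean less growth of the strain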
- CONDITION: S. cerevisiae deletion strains, growth OD, locus YLR330W, strain CHS5, active compounds read low
The campaign covered roughly 5,500 compounds. About 2,000 (36%) were called active. Another 18% or so got no clear call; they are omitted. This is one part of the list.

COMPOUND: CC1(C)C2(Cl)C(Cl)C(Cl)C(Cl)(C(Cl)Cl)C1(Cl)C2Cl (stereo unspecified)
normalized growth: 0.992

COMPOUND: CCN(CC)CCOC(=O)c1ccc(N)cc1
normalized growth: 1.01

COMPOUND: NC(CO)C(=O)NNCc1ccc(O)c(O)c1O (stereo unspecified)
normalized growth: 1.01

COMPOUND: C=C1C(C)C2C(Cc3ccccc3)NC(=O)C23OC(=O)/C=C/C(=O)CCCC(C)C/C=C/C3C1O (stereo unspecified)
normalized growth: 0.988

COMPOUND: CO/N=C(\C(=O)N[C@@H]1C(=O)N2C(C(=O)O)=C(COC(C)=O)CS[C@H]12)c1csc(N)n1
normalized growth: 0.988

COMPOUND: CCCCN1CCCCC1C(=O)Nc1c(C)cccc1C (stereo unspecified)
normalized growth: 1.01

COMPOUND: O=C1[C@H](CCC(O)c2ccc(F)cc2)[C@@H](c2ccc(O)cc2)N1c1ccc(F)cc1 (stereo partly specified)
normalized growth: 0.988

COMPOUND: O=C1OC(c2ccc(O)cc2)(c2ccc(O)cc2)c2ccccc21
normalized growth: 0.982

COMPOUND: CC(C)NC[C@H](O)COc1cccc2ccccc12
normalized growth: 1.01

COMPOUND: O=C1CC2OCC=C3CN4CC[C@]56c7ccccc7N1C5[C@H]2[C@H]3CC46 (stereo partly specified)
normalized growth: 1.01

COMPOUND: CC[N+](CC)(CC)CCOc1cccc(OCC[N+](CC)(CC)CC)c1OCC[N+](CC)(CC)CC
normalized growth: 1.01

* * *

- TEST DETAILS: chemical genetic growth profiling, strain panel (AID 1159580);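 further: tested at 20 µM; growth read once vehicle control cultures reached saturation at 30 °C; 1 = growth at the plate median or of vehicle wells; lower values mean less growth of the strain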
- CONDITION: S. cerevisiae deletion strains, growth OD, locus YNL322C, strain KRE1 (second series)
Screen size: about 5,500 compounds; about 2,000 (36%) were called active. Inconclusive results (about 18%) are left out. Cut-off read from the data, not from the text of the source: active = normalized growth mostly below about 0.91 (no sharp cut-off); inconclusive = no clear call, values can overlap the other calls; inactive = mostly above about 0.92. This is one part of the list.
Outcomes: active, inactive

MOLECULE: Cc1c(Cl)cccc1Nc1ccccc1C(=O)O
CLASSIFICATION: active

MOLECULE: CO/N=C(\C(=O)NC1C(=O)N2C(C(=O)O)=C(COC(N)=O)CSC12)c1ccco1 (centres undefined)
CLASSIFICATION: inactive

MOLECULE: CC(C)NNC(=O)c1ccncc1
CLASSIFICATION: inactive

MOLECULE: CCNC(=O)CC[C@H](N)C(=O)O
CLASSIFICATION: inactive

MOLECULE: O=C1[C@H](CCC(O)c2ccc(F)cc2)[C@@H](c2ccc(O)cc2)N1c1ccc(F)cc1 (some centres undefined)
CLASSIFICATION: inactive

MOLECULE: CCN(CC)C(=O)c1cccc(C)c1
CLASSIFICATION: inactive

MOLECULE: CC(C)C(=O)Nc1ccc([N+](=O)[O-])c(C(F)(F)F)c1
CLASSIFICATION: inactive

MOLECULE: C=C1C(=O)O[C@@H]2C3O[C@]3(C)CC/C=C(\C)CC[C@@H]12 (some centres undefined)
CLASSIFICATION: inactive

MOLECULE: O=c1cc[nH]c(=S)[nH]1
CLASSIFICATION: inactive

MOLECULE: O=C(C1CCCCC1)N1CC(=O)N2CCc3ccccc3C2C1 (centres undefined)
CLASSIFICATION: inactive

MOLECULE: C=CCSCC1Nc2cc(Cl)c(S(N)(=O)=O)cc2S(=O)(=O)N1 (centres undefined)
CLASSIFICATION: inactive

MOLECULE: CCOC(=O)[C@H](CCc1ccccc1)N[C@@H](C)C(=O)N1[C@H](C(=O)O)C[C@@H]2CCC[C@@H]21
CLASSIFICATION: inactive

MOLECULE: OCc1ccccc1O
CLASSIFICATION: inactive

MOLECULE: Oc1ccc(Cl)cc1Cc1cc(Cl)ccc1O
CLASSIFICATION: active

MOLECULE: CO/N=C(\C(=O)NC1C(=O)N2C(C(=O)OC(C)OC(C)=O)=C(COC(N)=O)CSC12)c1ccco1 (centres undefined)
CLASSIFICATION: inactive

MOLECULE: OCCOCCN1CCN(C2=Nc3ccccc3Sc3ccccc32)CC1
CLASSIFICATION: inactive

MOLECULE: C[C@@H]1C(=O)OC2[C@H](O)C34[C@@H]5OC(=O)[C@@]3(O[C@@H]3OC(=O)[C@H](O)[C@@]34[C@H](C(C)(C)C)[C@H]5O)[C@]21O (some centres undefined)
CLASSIFICATION: inactive

MOLECULE: COc1ccc(CCN2CCC(Nc3nc4ccccc4n3Cc3ccc(F)cc3)CC2)cc1
CLASSIFICATION: inactive

MOLECULE: CCOC(=O)Nc1nc2ccccc2[nH]1
CLASSIFICATION: inactive

MOLECULE: CC(C)C(C)/C=C/C(C)C1CCC2C3=CC=C4CC(O)CCC4(C)C3CCC21C (centres undefined)
CLASSIFICATION: inactive

MOLECULE: C=CC(N)CCC(=O)O (centres undefined)
CLASSIFICATION: inactive

MOLECULE: CN1C(C(=O)Nc2ccccn2)=C(O)c2ccccc2S1(=O)=O
CLASSIFICATION: inactive

MOLECULE: O=C1OC(c2ccc(O)cc2)(c2ccc(O)cc2)c2ccccc21
CLASSIFICATION: inactive

MOLECULE: C=C1C(=O)O[C@@H]2C[C@@]3(C)CCC[C@H](C)C3=C[C@H]12
CLASSIFICATION: active

MOLECULE: Oc1ccc(Cl)cc1
CLASSIFICATION: inactive

MOLECULE: Cc1coc2c1C(=O)C(=O)c1c-2ccc2c1CCCC2(C)C
CLASSIFICATION: inactive

MOLECULE: CC(C)(C)CC(C)(C)c1ccc(O)c(Cc2ccc(Cl)cc2Cl)c1
CLASSIFICATION: inactive

MOLECULE: Cc1cccc(Nc2ccccc2C(=O)O)c1C
CLASSIFICATION: active

MOLECULE: CC[N+](CC)(CC)CCOc1cccc(OCC[N+](CC)(CC)CC)c1OCC[N+](CC)(CC)CC
CLASSIFICATION: inactive
